- Tested on: HIV-1 RT mutant M184I
- Assay Text: single round infection assay, M184I
- Format: cell-based
- Condition Summary: Human immunodeficiency virus 1, M184I; ± SD, n=4
Reported Endpoint: IC50
Don't forget the unit after the value.

For the compound Cc1cc(/C=C/C#N)cc(C)c1Nc1nc(Nc2ccc(F)cc2)c2nc[nH]c2n1 , the measured IC50 on HIV-1 RT mutant M184I was 1.7 nM

For the compound Cc1cc(/C=C/C#N)cc(C)c1Nc1ncc2ncn(-c3ccc(C#N)cc3)c2n1 , the measured IC50 on HIV-1 RT mutant M184I was 5.6 nM

Entry COc1ccc(Cn2cnc3c(Nc4ccc(C#N)cc4)nc(Nc4c(C)cc(/C=C/C#N)cc4C)nc32)cc1 , tested on HIV-1 RT mutant M184I, has a reported IC50 of 0.69 nM

Source listed as paper PMC4754833.
